A collection of compounds and their measured IC50
# target_system: RORc ligand binding domain (Homo sapiens, UniProt P51449)
# Construct: host or cells: E. coli
# Sequence (P51449 269-508 limits assumed, species assumed): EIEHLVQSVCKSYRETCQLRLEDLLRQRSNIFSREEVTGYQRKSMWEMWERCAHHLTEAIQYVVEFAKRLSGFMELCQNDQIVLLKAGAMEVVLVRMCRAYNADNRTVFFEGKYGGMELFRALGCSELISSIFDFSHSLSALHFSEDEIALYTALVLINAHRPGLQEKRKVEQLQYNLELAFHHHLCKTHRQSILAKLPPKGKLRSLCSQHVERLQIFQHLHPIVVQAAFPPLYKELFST
# experiment: In Vitro RORc Ligand Binding Assay (25-[3H]hydroxycholesterol radioligand filtration)
# applied_conditions: In Vitro RORc Ligand Binding Assay; Table 4; read-out: RORc IC50

# compound, IC50
records = [
    ("C[C@H]1CCC(c2ccccc2)S(=O)(=O)N1Cc1ccc(N[C@H]2CC[C@H](C#N)CC2)cc1F (single isomer, unassigned) [Example 112]", "30 nM"),
    ("C[C@H]1CCC(c2ccccc2)S(=O)(=O)N1Cc1ccc(N2CC3(CCOCC3)C2)cc1F (single isomer, unassigned) [Example 84]", "23 nM"),
    ("C[C@H]1CCC(c2ccccc2)S(=O)(=O)N1Cc1ccc(N2CCC(c3ccn[nH]3)CC2)cc1F (single isomer, unassigned) [Example 212]", "16 nM"),
    ("CC(=O)N1CCN(c2ccc(CN3[C@@H](C)CCC(c4ccccc4)S3(=O)=O)c(F)c2)CC1 (single isomer, unassigned) [Example 17]", "16 nM"),
    ("CC(=O)N1CCN(c2ccc(CN3[C@@H](C)CCC(c4ccccc4)S3(=O)=O)cn2)CC1 (single isomer, unassigned) [Example 42]", "837 nM"),
    ("CC(=O)N1CCN(c2ccc(CN3[C@@H](C)CCC(c4cccc(C#N)c4)S3(=O)=O)c(F)c2)CC1 (single isomer, unassigned) [Example 203]", "206 nM"),
    ("C[C@H]1CCC(c2ccccc2)S(=O)(=O)N1Cc1ccc(N2CCC(/C(N)=N/O)CC2)cc1F (some centres unmarked) [Example 233]", "39 nM"),
    ("C[C@H]1CCC(c2ccccc2)S(=O)(=O)N1Cc1ccc(C(=O)N2CCn3ccnc3C2)cc1 (some centres unmarked) [Example 296]", "1290 nM"),
    ("COc1ccccc1C1CC[C@H](C)N(Cc2ccc(N3CCN(C(C)=O)CC3)cc2F)S1(=O)=O (single isomer, unassigned) [Example 223]", "135 nM"),
    ("CC(=O)N1CCN(c2ccc(CN3[C@@H](C)CCC(c4ccccc4C)S3(=O)=O)c(F)c2)CC1 (single isomer, unassigned) [Example 205]", "307 nM"),
    ("C[C@H]1CCC(c2ccccc2)S(=O)(=O)N1Cc1ccc(OC2CCN(S(C)(=O)=O)CC2)cc1 (single isomer, unassigned) [Example 44]", "14 nM"),
    ("CC(=O)N1CCN(c2ccc(CN3CCOCC(c4ccccc4)S3(=O)=O)c(F)c2)CC1 (single isomer, unassigned) [Example 22]", "751 nM"),
    ("C[C@@H]1CC(c2ccccc2)S(=O)(=O)N(Cc2ccc(N3CCN(C(=O)CC#N)CC3)cc2F)C1 (some centres unmarked) [Example 230]", "93 nM"),
    ("COc1cccc(C2CC[C@H](C)N(Cc3ccc(N4CCN(C(C)=O)CC4)cc3F)S2(=O)=O)c1 (single isomer, unassigned) [Example 191]", "116 nM"),
    ("CNC(=O)C1CN(C(=O)c2ccc(CN3[C@@H](C)CCC(c4ccccc4)S3(=O)=O)cc2)CCO1 (some centres unmarked) [Example 299]", "4930 nM"),
    ("CC(=O)N1CCN(c2ccc(CN3[C@@H](C)CCC(c4ccccc4)S3(=O)=O)c(F)c2)C[C@H]1C (some centres unmarked) [Example 264]", "18 nM"),
    ("C[C@H]1CCC(c2ccccc2)S(=O)(=O)N1Cc1ccc(N2CCc3[nH]ncc3C2)cc1F (single isomer, unassigned) [Example 156]", "272 nM"),
    ("COc1ccccc1C1CC[C@H](C)N(Cc2ccc(N3CCN(C(C)=O)CC3)cc2F)S1(=O)=O (single isomer, unassigned) [Example 224]", "62 nM"),
    ("CC(=O)N1CCN(c2ccc(CN3C[C@@H](C)OCC(c4ccccc4)S3(=O)=O)c(F)c2)CC1 (single isomer, unassigned) [Example 30]", "107 nM"),
    ("N#CCC(=O)N1CCN(c2ccc(CN3CCCCC(c4ccccc4)S3(=O)=O)cc2)CC1 (single isomer, unassigned) [Example 310]", "45 nM"),
    ("CC(=O)N1CCN(c2ccc(CN3C[C@H](C)OCC(c4ccccc4)S3(=O)=O)c(F)c2)CC1 (single isomer, unassigned) [Example 29]", "24 nM"),
    ("C[C@H]1CCC(c2ccccc2)S(=O)(=O)N1Cc1ccc(N2CCC(n3ccnc3)CC2)cc1F (some centres unmarked) [Example 217]", "11 nM"),
    ("C[C@H]1CCC(c2ccccc2)S(=O)(=O)N1Cc1ccc(N2CCC(C#N)CC2)cc1F (single isomer, unassigned) [Example 86]", "15 nM"),
    ("C[C@H]1CCC(c2ccccc2)S(=O)(=O)N1Cc1ccc(C(=O)N2CCC3(CCOC3)C2)cc1 (some centres unmarked) [Example 358]", "1220 nM"),
    ("O=c1[nH]nc(C2CCN(c3ccc(CN4CCCCC(c5ccccc5)S4(=O)=O)cc3)CC2)o1 (single isomer, unassigned) [Example 337]", "24 nM"),
    ("C[C@H]1CCC(c2ccccc2)S(=O)(=O)N1Cc1ccc(N2CCC(n3cccn3)CC2)cc1F (some centres unmarked) [Example 209]", "121 nM"),
]
